measurement.kind: melting point

compound	measurement.kind	reading
COc1ccc(-c2cccc3c2C2(COc4cc5c(cc42)OCCO5)C(=O)N3Cc2ccccn2)cc1 (centres unmarked)	melting point	205 to 206 °C
CN1CCOc2cc3c(cc21)C1(CO3)C(=O)N(Cc2ccc(C(F)(F)F)o2)c2ccccc21.Cl (centres unmarked)	melting point	105 °C (dec.)
CN(C)c1ncc(CN2C(=O)C3(COc4cc5c(cc43)OCO5)c3ccccc32)s1 (centres unmarked)	melting point	200 to 202 °C
Cn1c(=O)oc2cc3c(cc21)OCC31C(=O)N(C[C@H]2CCCO2)c2ccccc21 (some centres unmarked)	melting point	186 to 187 °C
O=C1N(C(c2ccccc2)c2ccccc2)c2c(F)cccc2C12COc1cc3c(cc12)CCO3 (centres unmarked)	melting point	183 to 184 °C
O=C1N(C[C@H]2OC(O)[C@H](O)[C@@H](O)[C@H]2O)c2ccccc2C12COc1cc3c(cc12)OCCO3 (some centres unmarked)	melting point	122 to 126 °C
COCCOc1ccc2c(c1)OCC21C(=O)N(Cc2ccccn2)c2ccccc21 (centres unmarked)	melting point	94 to 95 °C

# next compound below
Per the records, this compound ( COc1cc2c(cc1C)C1(CO2)C(=O)N(CC2CCCCO2)c2ccccc21 (centres unmarked) ) has melting point equal to 180 to 182 °C
